Cited source for all entries: paper PMC5540273

- Test system: SRMS;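 further: KINOMEscan kinase panel screen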
- SETTINGS: concentration: 1 μM, replicates: in singlicate; n = 1
Recorded %Inh values for a group of compounds are listed next.

COMPOUND | %Inh, %
O=C(NCc1cccs1)c1cc(C(=O)c2c(Cl)cccc2Cl)c[nH]1 | 15
Cc1ccc(Oc2ccc(Nc3ncnc4cc[nH]c34)cc2C)cn1 | 22
Cl.c1ccc(Cn2cnc3cc(Nc4ncnc5ccccc45)ccc32)cc1 | 0
O=C(NCCNc1ccnc(Nc2ccc(F)cc2)n1)Nc1ccc2c(c1)OCO2 | 0
CCC(=O)c1c(-c2ccccc2)c2cc(Cl)ccc2c(=O)n1Cc1cc(C(=O)NC2CC2)n(C)n1 | 0
COc1cc(Nc2nccc(N3CCC(NC(=O)C(C)c4ccc(Cl)cc4)C3)n2)cc(OC)c1OC (stereo not drawn) | 0
Nc1nccc2scc(-c3ccc4c(c3)CCN4C(=O)Cc3ccccc3)c12 | 10
COc1ccc(-c2cc3c(C)nc(N)nc3n([C@H]3CC[C@H](O)CC3)c2=O)cn1 | 0
CCCNC(=O)Nc1ccc(Oc2ncnc3ccn(C)c23)cc1 | 0
Cc1ccc(-c2ccc3c(ccc4sc5c(c43)NC[C@@H](C)N=C5N(C)C)n2)cn1 | 0
O=C(Nc1n[nH]c2nc(-c3ccccc3)c(Cl)cc12)C1CC1 | 0
CCC(=O)c1c(-c2ccccc2)c2cc(Cl)ccc2c(=O)n1Cc1cc(S(C)(=O)=O)n(CC(N)=O)n1 | 0
C[C@@H]1CC[C@H](C(=O)NC2CCCCC2)CN1c1cc(-c2ccc3c(N)n[nH]c3c2)nc(N)n1 | 11
CCCC(=O)Nc1n[nH]c2ncc(-c3cccc4ccccc34)cc12 | 4
COc1cc(Nc2nccc(N3CCC(NC(=O)C4COc5ccccc5O4)C3)n2)cc(OC)c1OC (stereo not drawn) | 11
COc1cccc(C2=C(N(C)c3ccccc3)C(=O)NC2=O)c1 | 0
Nc1nc(-c2ccccc2F)c(-c2ccnc3ccccc23)s1 | 0
CCC(=O)c1c(-c2ccccc2)c2cc(Cl)ccc2c(=O)n1Cc1ccc(C(=O)O)cc1 | 0
